Data origin, for the record: patent US20240034724A1

Recorded CC50 at 5 days by entry
Protocol: Test B: Cytotoxicity Assay in MT-4 Cells
Type: cell-based
Test context: human, uninfected MT-4 cells, CellTiter-Glo
Description: For the MT-4 antiviral assay, 50 μL of 3-fold serially diluted compound in complete RPMI medium was added to each well of a 384-well plate (10 concentrations) in quadruplicate. […] Cell lysis was carried out by incubating the assay plates at room temperature for 10 minutes followed by the quantification of chemiluminescence signal using an EnVision plate reader (Perkin Elmer, Shelton, CT). […]
Please state the figure in µM; there is no need to write the unit.

A selection of reference data follows.
Record smiles: C=C(C)C#Cc1ccc(-c2ccc(Cl)c3c(NS(C)(=O)=O)nn(CC(F)(F)F)c23)c([C@H](Cc2cc(F)cc(F)c2)NC(=O)Cn2nc(C(F)(F)F)c3c2C(F)(F)[C@@H]2C[C@H]32)n1
Numeric result: 8.74
--
Record smiles: CC(C)(C#Cc1ccc(-c2cccc3c(NS(C)(=O)=O)nn(CC(F)(F)F)c23)c([C@H](Cc2cc(F)cc(F)c2)NC(=O)Cn2nc(C(F)(F)F)c3c2C(F)(F)[C@@H]2C[C@H]32)n1)S(C)(=O)=O
Numeric result: 9.48
--
Record smiles: CC(C)C#Cc1ccc(-c2ccc(Cl)c3c(NS(C)(=O)=O)nn(CC(F)(F)F)c23)c([C@H](Cc2cc(F)cc(F)c2)NC(=O)Cn2nc(C(F)(F)F)c3c2C(F)(F)[C@@H]2C[C@H]32)n1
Numeric result: 7.5

We now examine a further compound.
Kindly note the recorded CC50 at 5 days for `CC(C)(O)C#Cc1ccc(-c2ccc(Cl)c3c(NS(C)(=O)=O)nn(CC(F)(F)F)c23)c([C@H](Cc2cc(F)cc(F)c2)NC(=O)Cn2nc(C(F)(F)F)c3c2C(F)(F)[C@@H]2C[C@H]32)n1` , which is 3.61
